measurementDescription: Body and organ weights of cynomolgus monkeys (Example 45);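 note: absolute organ weight in grams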
Format: in vivo
details: after the animals were euthanized
For each record, write down the corresponding Organ weights, Spleen.
Numbers only, in g.

// for each substance below, give its Organ weights, Spleen
1. ISIS 416858: MOE gapmer, nucleobases 1275 to 1318 of SEQ ID NO: 1 (Table 8) (antisense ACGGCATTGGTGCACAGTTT; MOE gapmer, wing and gap sizes not given here)
2. ISIS 416838: MOE gapmer, nucleobases 1018 to 1042 of SEQ ID NO: 1 (Table 6) (antisense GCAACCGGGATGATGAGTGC; MOE gapmer, wing and gap sizes not given here)

Reply:
[12, 5]

// for each substance below, give its Organ weights, Spleen
1. ISIS 417002: MOE gapmer, nucleobases 1275 to 1318 of SEQ ID NO: 1 (Table 8) (antisense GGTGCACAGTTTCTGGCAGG; MOE gapmer, wing and gap sizes not given here)
2. ISIS 416864: MOE gapmer, nucleobases 1275 to 1318 of SEQ ID NO: 1 (Table 8) (antisense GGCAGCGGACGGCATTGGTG; MOE gapmer, wing and gap sizes not given here)

Reply:
5
5

----------
Test system: Factor 11 protein
measurementDescription: Factor 11 protein in monkey plasma by sandwich ELISA (Example 46)
Type: in vivo, cynomolgus monkeys
details: Day 45, plasma, 25 mg/kg subcutaneously
Strand notation (5' to 3'): a small letter for the sugar, then the base; units joined by * are phosphorothioate-linked, units joined directly phosphodiester-linked; [ ] holds rarer units or linkages, { } end groups; capitals alone tell only the bases. e = 2'-O-(2-methoxyethyl) (MOE); [5mC] = 5-methylcytosine; d = 2'-deoxy (DNA)
For each record, write down the corresponding Inhibition of Factor 11 protein relative to the PBS control (percentage reduction).
Could you give the number and then its unit, please?

Sample records with Inhibition of Factor 11 protein relative to the PBS control (percentage reduction):
449708 (antisense eA*e[5mC]*eA*dG*dT*dT*dT*d[5mC]*dT*dG*dG*e[5mC]*eA*eG) [compound 449708]	2%
445522 (antisense eG*e[5mC]*eA*e[5mC]*eA*dG*dT*dT*dT*d[5mC]*dT*dG*dG*e[5mC]*eA*eG*eG*e[5mC]) [compound 445522]	77%
416850 (antisense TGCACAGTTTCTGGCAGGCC; 5-10-5 gapmer, further chemistry not given here) [compound 416850]	53%
449710 (antisense e[5mC]*eA*e[5mC]*dA*dG*dT*dT*dT*d[5mC]*dT*dG*dG*d[5mC]*eA*eG*eG) [compound 449710]	23%
449711 (antisense eA*e[5mC]*dA*dG*dT*dT*dT*d[5mC]*dT*dG*dG*d[5mC]*eA*eG) [compound 449711]	4%

Query: Returns the measured Inhibition of Factor 11 protein relative to the PBS control (percentage reduction) for the input substance. Input: 445531 (antisense eG*eG*e[5mC]*eA*eT*dT*dG*dG*dT*dG*d[5mC]*dA*d[5mC]*eA*eG*eT*eT*eT) [compound 445531]
Reply: 32%

----------
For each record, write down the corresponding Half-Life in the liver.
Set-up: species or system CD1 mice
details: mouse, in vivo, sc, 50 mg/kg
Give bare numbers, in days.

Sample records with Half-Life in the liver:
412224 (antisense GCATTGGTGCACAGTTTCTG; 5-10-5 MOE gapmer, further chemistry not given here) [compound 412224]	16.6
416856 (antisense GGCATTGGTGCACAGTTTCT; 5-10-5 gapmer, further chemistry not given here) [compound 416856]	19.2

// for each substance below, give its Half-Life in the liver
1. 412223 (antisense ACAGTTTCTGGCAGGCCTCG; 5-10-5 MOE gapmer, further chemistry not given here) [compound 412223]
2. 416860 (antisense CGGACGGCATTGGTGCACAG; 5-10-5 gapmer, further chemistry not given here) [compound 416860]

Reply:
[21.9, 20.6]

// for each substance below, give its Half-Life in the liver
1. 416859 (antisense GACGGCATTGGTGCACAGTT; 5-10-5 gapmer, further chemistry not given here) [compound 416859]
2. 416852 (antisense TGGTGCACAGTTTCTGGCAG; 5-10-5 gapmer, further chemistry not given here) [compound 416852]

Reply:
1: 19.0; 2: 28.4

----------
Test system: blood coagulation
measurementDescription: PT and aPTT assay in cynomolgus monkeys (Example 45)
Type: in vivo
details: day 29; escalating dose regimen; platelet poor plasma
readoutType: aPTT ratio (INR)
Answers are plain numbers.

Sample records with aPTT ratio (INR):
ISIS 416858: MOE gapmer, nucleobases 1275 to 1318 of SEQ ID NO: 1 (Table 8) (antisense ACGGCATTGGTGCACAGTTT; MOE gapmer, wing and gap sizes not given here)	1.20
ISIS 416864: MOE gapmer, nucleobases 1275 to 1318 of SEQ ID NO: 1 (Table 8) (antisense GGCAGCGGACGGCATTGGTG; MOE gapmer, wing and gap sizes not given here)	1.13

Kindly consider the entry below.
Query: Returns the measured aPTT ratio (INR) for the input substance. Input: ISIS 416838: MOE gapmer, nucleobases 1018 to 1042 of SEQ ID NO: 1 (Table 6) (antisense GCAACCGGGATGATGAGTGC; MOE gapmer, wing and gap sizes not given here)
Reply: 1.19

----------
For each record, write down the corresponding monocytes.
measurementDescription: Hematology assays in cynomolgus monkeys (Example 45)
Format: in vivo
details: day 50
Could you give the number and then its unit, please?

Sample records with monocytes:
ISIS 416838: MOE gapmer, nucleobases 1018 to 1042 of SEQ ID NO: 1 (Table 6) (antisense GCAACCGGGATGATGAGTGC; MOE gapmer, wing and gap sizes not given here)	3.2%
ISIS 416864: MOE gapmer, nucleobases 1275 to 1318 of SEQ ID NO: 1 (Table 8) (antisense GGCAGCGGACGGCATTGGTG; MOE gapmer, wing and gap sizes not given here)	2.9%
ISIS 416858: MOE gapmer, nucleobases 1275 to 1318 of SEQ ID NO: 1 (Table 8) (antisense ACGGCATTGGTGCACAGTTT; MOE gapmer, wing and gap sizes not given here)	4.6%
ISIS 416850: MOE gapmer, nucleobases 1275 to 1318 of SEQ ID NO: 1 (Table 8) (antisense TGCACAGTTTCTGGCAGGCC; MOE gapmer, wing and gap sizes not given here)	3.7%

Query: Returns the measured monocytes for the input substance. Input: ISIS 417002: MOE gapmer, nucleobases 1275 to 1318 of SEQ ID NO: 1 (Table 8) (antisense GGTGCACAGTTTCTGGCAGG; MOE gapmer, wing and gap sizes not given here)
Reply: 3.1%

----------
For each record, write down the corresponding % inhibition.
Tested on: human Factor 11 mRNA
measurementDescription: Antisense inhibition of human Factor 11 in HepG2 cells, lipofectin, 75 nM (Example 1)
Assay type: cell-based
details: 75 nM antisense oligonucleotide, ~24 h, relative to untreated control cells, gapmers targeted to SEQ ID NO: 1
Strand notation (5' to 3'): a small letter for the sugar, then the base; units joined by * are phosphorothioate-linked, units joined directly phosphodiester-linked; [ ] holds rarer units or linkages, { } end groups; capitals alone tell only the bases. e = 2'-O-(2-methoxyethyl) (MOE); [5mC] = 5-methylcytosine; d = 2'-deoxy (DNA)
One number for each entry, in %.

Sample records with % inhibition:
413460 (antisense eT*eA*e[5mC]*e[5mC]*eT*dT*dG*dA*dG*dA*dG*dA*dA*dT*dT*eG*e[5mC]*eT*eT*eG) [compound 413460]	40
412231 (antisense eT*e[5mC]*e[5mC]*eT*eG*dG*dG*d[5mC]*dT*dT*dG*dA*dT*dT*dT*eT*eG*eG*eT*eG) [compound 412231]	74
412245 (antisense eG*eT*e[5mC]*eA*e[5mC]*dT*dA*dA*dG*dG*dG*dT*dA*dT*d[5mC]*eT*eT*eG*eG*e[5mC]) [compound 412245]	75
412238 (antisense e[5mC]*eG*e[5mC]*eA*eA*dA*dA*dT*d[5mC]*dT*dT*dA*dG*dG*dT*eG*eA*e[5mC]*eT*e[5mC]) [compound 412238]	71
412240 (antisense eT*eG*eA*eA*e[5mC]*d[5mC]*d[5mC]*d[5mC]*dA*dA*dA*dG*dA*dA*dA*eG*eA*eT*eG*eT) [compound 412240]	32

// for each substance below, give its % inhibition
1. 413485 (antisense eT*eG*eG*eT*eG*dG*dT*dA*d[5mC]*dA*d[5mC]*dT*d[5mC]*dA*dT*eT*eA*eT*e[5mC]*e[5mC]) [compound 413485]
2. 412257 (antisense e[5mC]*eT*eG*e[5mC]*eA*dA*dA*dA*dT*dG*dG*dT*dG*dA*dA*eG*eA*e[5mC]*eT*eG) [compound 412257]
3. 413461 (antisense eG*eT*e[5mC]*eA*eG*dA*dA*dA*dT*dA*dT*dA*d[5mC]*d[5mC]*dT*eT*eG*eA*eG*eA) [compound 413461]
4. 412224 (antisense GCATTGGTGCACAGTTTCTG; 5-10-5 MOE gapmer, further chemistry not given here) [compound 412224]
5. 413497 (antisense eG*eA*eT*eT*e[5mC]*d[5mC]*dT*dG*d[5mC]*dA*dA*dA*dA*dT*dG*eG*eT*eG*eA*eA) [compound 413497]
6. 413465 (antisense e[5mC]*eT*eT*eA*eT*dT*dT*dG*dG*dT*dG*dT*dG*dA*dG*e[5mC]*eA*eT*eT*eG) [compound 413465]

Reply:
1. 68
2. 57
3. 39
4. 87
5. 39
6. 80
